molecular target: ABCG2 (Homo sapiens); test: Bioluminescence imaging (BLI) assay in HEK293/ABCG2/fLuc cells; conditions: human, 40 min, 17 μM
Structures can show the parent of a compound that is named as a salt.
Simple rule here: Fold (BLI enhancement, S/B ratio over control) less than 3 fold is Satisfied, otherwise Not satisfied.

**Query** API: query returns whether the compound falls strictly under 3 fold in Fold (BLI enhancement, S/B ratio over control). Query: CCC(=O)O[C@H]1CC[C@H]2[C@@H]3CCc4cc(O)ccc4[C@H]3CC[C@]12C [estradiol propionate]
**Result** Satisfied

**Query** Criterion: Fold (BLI enhancement, S/B ratio over control) strictly below 3 fold. Is it met by NCCS [mercaptamine hydrochloride] ?
**Result** Satisfied

**Query** Does this compound meet the criterion Fold (BLI enhancement, S/B ratio over control) < 3 fold? COC(=O)[C@H]1[C@H]2C[C@@H]3c4[nH]c5cc(OC)ccc5c4CCN3C[C@H]2C[C@@H](OC(=O)c2cc(OC)c(OC)c(OC)c2)[C@@H]1OC
**Result** Not satisfied

**Query** Below 3 fold on Fold (BLI enhancement, S/B ratio over control)? Entry CCc1nn(CCCN2CCN(c3cccc(Cl)c3)CC2)c(=O)n1CCOc1ccccc1 [nefazodone hydrochloride]
**Result** Satisfied

**Query** In the record for CCCc1nn(C)c2c(=O)[nH]c(-c3cc(S(=O)(=O)N4CCN(C)CC4)ccc3OCC)nc12 , is Fold (BLI enhancement, S/B ratio over control) less than 3 fold?
**Result** Not satisfied

**Query** # check: Fold (BLI enhancement, S/B ratio over control) < 3 fold for CC(=O)OCC(=O)[C@@]1(O)[C@H](C)C[C@H]2[C@@H]3CCC4=CC(=O)C=C[C@]4(C)[C@@]3(F)[C@@H](O)C[C@@]21C [dexamethasone acetate]
**Result** Satisfied

* * *

Molecular target: ABCG2 (Homo sapiens, UniProt Q9UNQ0)
Sequence (Q9UNQ0 1-655): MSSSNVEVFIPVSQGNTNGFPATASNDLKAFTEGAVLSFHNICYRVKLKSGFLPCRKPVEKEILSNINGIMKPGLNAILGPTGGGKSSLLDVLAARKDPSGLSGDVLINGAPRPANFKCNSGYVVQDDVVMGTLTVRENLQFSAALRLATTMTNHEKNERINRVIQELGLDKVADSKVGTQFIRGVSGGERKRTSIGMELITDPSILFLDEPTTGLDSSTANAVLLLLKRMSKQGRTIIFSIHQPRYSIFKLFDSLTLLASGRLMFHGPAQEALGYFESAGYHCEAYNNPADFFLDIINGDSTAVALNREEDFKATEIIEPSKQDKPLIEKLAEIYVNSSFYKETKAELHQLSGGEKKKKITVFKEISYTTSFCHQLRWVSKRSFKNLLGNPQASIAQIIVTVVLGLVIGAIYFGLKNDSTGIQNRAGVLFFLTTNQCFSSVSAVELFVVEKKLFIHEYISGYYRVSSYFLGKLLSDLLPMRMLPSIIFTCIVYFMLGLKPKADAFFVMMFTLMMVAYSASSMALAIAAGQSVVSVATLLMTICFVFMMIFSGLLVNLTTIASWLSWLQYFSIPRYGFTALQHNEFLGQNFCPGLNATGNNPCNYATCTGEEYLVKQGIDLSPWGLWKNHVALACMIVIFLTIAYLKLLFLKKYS
Assay: Bioluminescence imaging (BLI) assay in HEK293/ABCG2/fLuc cells
Conditions: human, 40 min, 17 μM
readout-label: Fold (BLI enhancement, S/B ratio over control) (fold)
Answer in fold, number only, no unit symbol.

**Query** # Fold (BLI enhancement, S/B ratio over control) lookup, item O=C(O)c1cc(O)c2c(c1)C(=O)c1cccc(O)c1C2=O [rhein]
**Result** 3.1

**Query** Return reported Fold (BLI enhancement, S/B ratio over control); argument: COc1cc2ncnc(Nc3ccc(F)c(Cl)c3)c2cc1OCCCN1CCOCC1 [gefitinib]
**Result** 19.0

**Query** For the compound shown here, CN1CCCN=C1/C=C/c1cccs1 [pyrantel] , give the reported Fold (BLI enhancement, S/B ratio over control).
**Result** 3.9

**Query** # input compound: OCCN1CCN(CCCN2c3ccccc3Sc3ccc(C(F)(F)F)cc32)CC1 [fluphenazine] ; wanted: its Fold (BLI enhancement, S/B ratio over control)
**Result** 2.0

**Query** Record request: Fold (BLI enhancement, S/B ratio over control) value, item OCCN(CCO)c1nc(N2CCCCC2)c2nc(N(CCO)CCO)nc(N3CCCCC3)c2n1 [dipyridamole]
**Result** 7.1

* * *

molecular target: UniProtKB Q9UNQ0; assay: Bioluminescence imaging (BLI) assay in HEK293/ABCG2/fLuc cells; settings: human, 40 min, 17 μM
Counter-ions that a name gives are not always drawn.
readout-label: Fold (BLI enhancement), previously unknown compounds

**Query** Short answer please: Fold (BLI enhancement), previously unknown compounds, UniProtKB Q9UNQ0, entry CCN(CC)CCCC(C)Nc1c2ccc(Cl)cc2nc2ccc(OC)cc12 (stereo not shown) [quinacrine]
**Result** 10.6 fold

**Query** For UniProtKB Q9UNQ0, provide Fold (BLI enhancement), previously unknown compounds of O=C(c1ccc(OCCN2CCCCC2)cc1)c1c(-c2ccc(O)cc2)sc2cc(O)ccc12 [raloxifene hydrochloride] please.
**Result** 5.4 fold

**Query** Record lookup: for UniProtKB Q9UNQ0, what Fold (BLI enhancement), previously unknown compounds belongs to CC(=O)c1ccc2c(c1)N(CCCN1CCC(CCO)CC1)c1ccccc1S2 [piperacetazine] ?
**Result** 5.8 fold

**Query** Missing value: Fold (BLI enhancement), previously unknown compounds, UniProtKB Q9UNQ0, entry CC(=O)c1ccc2c(c1)N(CCCN(C)C)c1ccccc1S2 [acepromazine] . Fill in?
**Result** 6.2 fold

* * *

molecular target: ABCG2 (Homo sapiens); assay: Bioluminescence imaging (BLI) assay in HEK293/ABCG2/fLuc cells; conditions: human
Counter-ions that a name gives are not always drawn.
For each record, check the reported Fold (BLI enhancement, S/B ratio over control): if it is below 3 fold write t, else write f.

**Query** Confirm or reject: Fold (BLI enhancement, S/B ratio over control) of CC(C)C[C@H]1C(=O)N2CCC[C@H]2[C@]2(O)O[C@](NC(=O)[C@@H]3C=C4c5cccc6[nH]c(Br)c(c56)C[C@H]4N(C)C3)(C(C)C)C(=O)N12 [bromocriptine mesylate] lies strictly below 3 fold
**Result** t

**Query** Check if Fold (BLI enhancement, S/B ratio over control) falls below 3 fold for CC1=NCCc2c1[nH]c1cc(O)ccc21.Cl [harmalol hydrochloride] .
**Result** t

**Query** Please check: Fold (BLI enhancement, S/B ratio over control) for C[C@]12Cc3c[nH]nc3C[C@@H]1CC[C@@H]1[C@@H]2CC[C@@]2(C)[C@H]1CC[C@]2(C)O [stanozolol] , strictly under 3 fold or not?
**Result** t

**Query** Find out if reported Fold (BLI enhancement, S/B ratio over control) for CN1C[C@H](C(=O)N[C@]2(C)O[C@@]3(O)[C@@H]4CCCN4C(=O)[C@H](Cc4ccccc4)N3C2=O)C[C@@H]2c3cccc4[nH]cc(c34)C[C@H]21 [dihydroergotamine mesylate] is less than 3 fold
**Result** f

**Query** I'd appreciate it if you could check whether CC[C@@H](C(=O)[C@@H](C)[C@@H](O)[C@H](C)CCc1ccc(C)c(O)c1C(=O)O)[C@H]1O[C@](CC)([C@H]2CC[C@](O)(CC)[C@H](C)O2)C[C@@H]1C [lasalocid sodium] has Fold (BLI enhancement, S/B ratio over control) smaller than 3 fold.
**Result** t

**Query** Does the reported Fold (BLI enhancement, S/B ratio over control) of C=C(C)[C@H]1Cc2c(ccc3c2O[C@@H]2COc4cc(OC)c(OC)cc4[C@@H]2C3=O)O1 [rotenone] stay below 3 fold?
**Result** f

**Query** Threshold test, Fold (BLI enhancement, S/B ratio over control) < 3 fold: CC[C@@]1(O)C[C@H](O[C@H]2C[C@H](N(C)C)[C@H](O)[C@H](C)O2)c2c(cc3c(c2O)C(=O)c2c(O)cccc2C3=O)[C@H]1C(=O)OC [aklavine hydrochloride]
**Result** t

* * *

Give measured Fold (BLI enhancement), previously unknown compounds for each item. Keep answers brief.
Target: ABCG2 (Homo sapiens, UniProt Q9UNQ0)
Sequence (Q9UNQ0 1-655): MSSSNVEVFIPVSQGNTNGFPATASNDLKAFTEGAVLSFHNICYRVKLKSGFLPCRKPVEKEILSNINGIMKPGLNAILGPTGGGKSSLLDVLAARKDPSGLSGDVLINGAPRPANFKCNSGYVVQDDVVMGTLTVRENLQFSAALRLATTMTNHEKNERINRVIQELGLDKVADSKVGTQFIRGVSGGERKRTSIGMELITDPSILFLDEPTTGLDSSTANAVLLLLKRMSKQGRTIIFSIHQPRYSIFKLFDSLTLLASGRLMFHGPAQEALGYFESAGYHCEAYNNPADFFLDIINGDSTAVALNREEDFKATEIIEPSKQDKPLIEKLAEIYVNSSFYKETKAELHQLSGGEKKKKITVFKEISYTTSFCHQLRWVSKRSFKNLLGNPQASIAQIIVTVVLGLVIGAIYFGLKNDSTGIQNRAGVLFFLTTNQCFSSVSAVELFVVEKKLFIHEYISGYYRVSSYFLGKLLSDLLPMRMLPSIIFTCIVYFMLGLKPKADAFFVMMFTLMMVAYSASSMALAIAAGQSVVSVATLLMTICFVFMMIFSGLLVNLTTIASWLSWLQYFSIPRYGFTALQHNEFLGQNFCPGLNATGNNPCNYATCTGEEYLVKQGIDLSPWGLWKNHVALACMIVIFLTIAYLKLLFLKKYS
Assay: Bioluminescence imaging (BLI) assay in HEK293/ABCG2/fLuc cells
Conditions: human, 40 min, 17 μM
Where a name gives a salt, the structure may show the parent alone.
Quote the value and follow it with the unit of measurement.

**Query** # lookup: Fold (BLI enhancement), previously unknown compounds of CC(C)C(=O)Nc1ccc([N+](=O)[O-])c(C(F)(F)F)c1 [flutamide]
**Result** 6.1 fold

**Query** Data request, read-out Fold (BLI enhancement), previously unknown compounds, for CC(C)=CCC[C@]1(C)C=Cc2c(O)c3c(c(CC=C(C)C)c2O1)O[C@]12C(=C[C@@H]4C[C@H]1C(C)(C)O[C@@]2(C/C=C(/C)C(=O)O)C4=O)C3=O [gambogic acid]
**Result** 6.0 fold

**Query** State the recorded Fold (BLI enhancement), previously unknown compounds for this entry: COc1ccc(-c2cc(=O)c3c(O)c(OC)c(OC)cc3o2)cc1O [eupatorin]
**Result** 5.6 fold

**Query** Fill in: Fold (BLI enhancement), previously unknown compounds of Cc1cc(O)c2c(c1)C(=O)c1cc(O)cc(O)c1C2=O [emodin] is ___
**Result** 6.4 fold

**Query** Recorded Fold (BLI enhancement), previously unknown compounds of CCN(CC)CCOc1ccc(C(=C(Cl)c2ccccc2)c2ccccc2)cc1 [clomiphene citrate] , please.
**Result** 6.7 fold

**Query** Name the reported Fold (BLI enhancement), previously unknown compounds value associated with the compound COc1cc(N)c(Cl)cc1C(=O)NC1CCN(Cc2ccccc2)CC1 [clebopride maleate]
**Result** 7.9 fold

**Query** Any idea what Fold (BLI enhancement), previously unknown compounds was measured for CCCc1nn(C)c2c(=O)[nH]c(-c3cc(S(=O)(=O)N4CCN(C)CC4)ccc3OCC)nc12 [sildenafil] ?
**Result** 6.6 fold

**Query** Name the reported Fold (BLI enhancement), previously unknown compounds value associated with the compound O=C(OCC(O)CO)c1ccccc1Nc1ccnc2cc(Cl)ccc12 (centres unmarked) [glafenine]
**Result** 20.6 fold

**Query** Given the compound CCCCNc1c(C(=O)OCC)c(C)nc2c1cnn2CC [tracazolate] , what is its reported Fold (BLI enhancement), previously unknown compounds?
**Result** 20 fold

**Query** Please report the recorded Fold (BLI enhancement), previously unknown compounds for Cc1c(-c2ccccc2)oc2c(C(=O)OCCN3CCCCC3)cccc2c1=O [flavoxate hydrochloride] .
**Result** 11.2 fold

**Query** What Fold (BLI enhancement), previously unknown compounds value was documented for this compound, COc1cc(N)c(Cl)cc1C(=O)NC1CCN(Cc2ccccc2)CC1 [clebopride] ?
**Result** 6.7 fold
